Target: Vitronectin Receptor (αvβ3) (Homo sapiens, UniProt P05106+P06756)
Construct: Human vitronection receptor (VnR) is purified from human placenta
Sequence (P06756 31-889 limits assumed): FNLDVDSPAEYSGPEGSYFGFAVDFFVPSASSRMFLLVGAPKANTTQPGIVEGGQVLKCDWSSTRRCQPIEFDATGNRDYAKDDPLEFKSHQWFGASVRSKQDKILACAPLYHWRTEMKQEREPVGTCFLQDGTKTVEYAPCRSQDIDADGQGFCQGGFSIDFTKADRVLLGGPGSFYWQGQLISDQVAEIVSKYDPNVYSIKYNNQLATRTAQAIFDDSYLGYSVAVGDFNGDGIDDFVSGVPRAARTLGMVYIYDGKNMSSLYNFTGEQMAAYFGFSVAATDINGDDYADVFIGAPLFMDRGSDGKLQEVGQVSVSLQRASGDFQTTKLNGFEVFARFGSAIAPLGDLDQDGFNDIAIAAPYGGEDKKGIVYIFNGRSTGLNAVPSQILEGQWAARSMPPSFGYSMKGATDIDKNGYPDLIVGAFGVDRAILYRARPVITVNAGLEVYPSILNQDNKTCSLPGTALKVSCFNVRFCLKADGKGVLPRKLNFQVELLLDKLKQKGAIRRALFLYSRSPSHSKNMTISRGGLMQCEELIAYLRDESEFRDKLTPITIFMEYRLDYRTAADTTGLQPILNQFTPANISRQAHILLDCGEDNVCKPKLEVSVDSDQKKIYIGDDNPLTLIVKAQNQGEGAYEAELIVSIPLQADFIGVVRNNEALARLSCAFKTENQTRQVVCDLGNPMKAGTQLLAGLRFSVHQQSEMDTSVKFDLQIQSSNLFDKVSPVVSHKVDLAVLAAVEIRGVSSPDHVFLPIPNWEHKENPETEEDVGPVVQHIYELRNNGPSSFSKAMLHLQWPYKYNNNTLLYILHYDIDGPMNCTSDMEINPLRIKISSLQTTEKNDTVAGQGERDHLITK
Sequence (P06756 891-1048 partner limits assumed): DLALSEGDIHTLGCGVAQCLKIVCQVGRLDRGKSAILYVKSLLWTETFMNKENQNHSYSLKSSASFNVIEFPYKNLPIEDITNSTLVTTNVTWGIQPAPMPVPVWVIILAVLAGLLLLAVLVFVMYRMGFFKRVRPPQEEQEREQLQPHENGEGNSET
Sequence (P05106 27-788): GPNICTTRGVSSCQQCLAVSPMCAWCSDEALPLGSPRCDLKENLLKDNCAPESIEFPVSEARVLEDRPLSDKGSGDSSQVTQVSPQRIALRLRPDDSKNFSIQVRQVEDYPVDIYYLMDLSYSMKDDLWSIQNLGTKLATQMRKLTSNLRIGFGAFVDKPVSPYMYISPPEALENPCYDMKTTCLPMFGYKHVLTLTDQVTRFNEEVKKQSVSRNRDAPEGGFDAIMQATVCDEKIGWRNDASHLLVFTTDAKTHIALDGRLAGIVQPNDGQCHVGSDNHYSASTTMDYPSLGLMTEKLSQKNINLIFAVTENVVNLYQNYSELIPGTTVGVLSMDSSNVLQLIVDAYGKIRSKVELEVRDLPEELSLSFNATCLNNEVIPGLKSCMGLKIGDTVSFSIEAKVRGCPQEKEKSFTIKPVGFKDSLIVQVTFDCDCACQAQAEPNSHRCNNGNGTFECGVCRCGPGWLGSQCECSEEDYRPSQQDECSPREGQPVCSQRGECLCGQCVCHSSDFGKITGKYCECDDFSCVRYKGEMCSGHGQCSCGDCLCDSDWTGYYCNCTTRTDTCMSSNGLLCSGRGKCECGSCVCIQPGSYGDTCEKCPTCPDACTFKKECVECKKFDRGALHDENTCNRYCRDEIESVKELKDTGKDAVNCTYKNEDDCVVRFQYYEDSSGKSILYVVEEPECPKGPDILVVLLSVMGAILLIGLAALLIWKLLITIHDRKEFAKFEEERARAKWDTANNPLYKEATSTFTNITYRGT
Assay: Human Vitronectin-Vitronectin Receptor (αvβ3) ELISA Assay
Details: purified human αvβ3, vitronectin-coated plates; read-out: ELISA IC50 Vitronectin VnR
pIC50: −log10 of the molar value. *1 amine or outer side, *2 acyl side, *3 side chain or, on linkers, in order; H or OH if unused. Where a SMILES comes first, the peptide text is derived from it. Bridges are numbered along the chain shown (N, C = ends). [ ]: non-standard residue; d: D form. The star is where a group is joined. Ethylenediamine = C(CN[*:2])N[*:1]; Aad = N[C@@H](CCCC(=O)O)C(=O)O; Pen = CC(C)(S)[C@H](N)C(=O)O; NH(CH2)5NH2 = NCCCCCN*; Ava = NCCCCC(=O)O
Tick 1 (yes) if pIC50 is 7 or greater. Tick 0 (no) if pIC50 is less than 7.

COMPOUND: N=C(N)NCCC[C@@H]1NC(=O)[C@@H](Cc2ccc(O)cc2)NC(=O)CSC[C@@H](C(=O)O)NC(=O)[C@H](CC(=O)O)NC(=O)CNC1=O [7/46] ({CH2CO}-[dY]RGDC-OH; thioether N-5)
SUBJECT OF TEST: Vitronectin Receptor (αvβ3) (Homo sapiens, UniProt P05106+P06756)
LABEL CLASS: 1 (yes)

COMPOUND: N=C(N)NCCC[C@@H]1NC(=O)[C@@H](Cc2ccc(O)cc2)NC(=O)CSC[C@@H](C(=O)NCCCCCN)NC(=O)[C@H](CC(=O)O)NC(=O)CNC1=O [8/13] ({CH2CO}-[dY]RGDC-{NH(CH2)5NH2}; thioether N-5)
SUBJECT OF TEST: Vitronectin Receptor (αvβ3) (Homo sapiens, UniProt P05106+P06756)
LABEL CLASS: 1 (yes)

COMPOUND: N=C(N)NCCC[C@@H]1NC(=O)[C@@H](Cc2ccc(O)cc2)NC(=O)CSC[C@@H](C(=O)N[C@H](CCCNC(=N)N)C(N)=O)NC(=O)[C@H](CC(=O)O)NC(=O)CNC1=O [7/2] ({CH2CO}-[dY]RGDC[dR]-NH2; thioether N-5)
SUBJECT OF TEST: Vitronectin Receptor (αvβ3) (Homo sapiens, UniProt P05106+P06756)
LABEL CLASS: 1 (yes)

COMPOUND: N=C(N)NCCC[C@@H]1NC(=O)[C@@H](Cc2ccc(O)cc2)NC(=O)CSC[C@@H](C(=O)NCCN)NC(=O)[C@H](CC(=O)O)NC(=O)CNC1=O [8/23] ({CH2CO}-[dY]RGDC-Ethylenediamine; thioether N-5)
SUBJECT OF TEST: Vitronectin Receptor (αvβ3) (Homo sapiens, UniProt P05106+P06756)
LABEL CLASS: 1 (yes)

COMPOUND: CC1(C)SCC(=O)N[C@H](Cc2ccc(O)cc2)C(=O)N[C@@H](CCCCN)C(=O)NCC(=O)N[C@@H](CC(=O)O)C(=O)N[C@@H]1C(=O)N[C@@H](CCCNC(=N)N)C(N)=O [7/16] ({CH2CO}-[dY]KGD[Pen]R-NH2; thioether N-5)
SUBJECT OF TEST: Vitronectin Receptor (αvβ3) (Homo sapiens, UniProt P05106+P06756)
LABEL CLASS: 0 (no)

COMPOUND: N=C(N)NCCC[C@H](NC(=O)[C@@H]1CCCC(=O)N[C@H](Cc2ccc(O)cc2)C(=O)N[C@@H](CCCNC(=N)N)C(=O)NCC(=O)N[C@@H](CC(=O)O)C(=O)N1)C(N)=O [10/19] ([dY]RGD[Aad]R-NH2; lactam N-5)
SUBJECT OF TEST: Vitronectin Receptor (αvβ3) (Homo sapiens, UniProt P05106+P06756)
LABEL CLASS: 1 (yes)

COMPOUND: NCCCC[C@@H]1NC(=O)[C@@H](Cc2ccc(O)cc2)NC(=O)C(c2ccccc2)SC[C@@H](C(=O)O)NC(=O)[C@H](CC(=O)O)NC(=O)CNC1=O (single isomer, unassigned)
SUBJECT OF TEST: Vitronectin Receptor (αvβ3) (Homo sapiens, UniProt P05106+P06756)
LABEL CLASS: 0 (no)

COMPOUND: N=C(N)NCCC[C@H](NC(=O)[C@@H]1CSCC(=O)N[C@H](Cc2ccc(O)cc2)C(=O)N[C@@H](CCCNC(=N)N)C(=O)NCC(=O)N[C@@H](CC(=O)O)C(=O)N1)C(N)=O [7/1] ({CH2CO}-[dY]RGDCR-NH2; thioether N-5)
SUBJECT OF TEST: Vitronectin Receptor (αvβ3) (Homo sapiens, UniProt P05106+P06756)
LABEL CLASS: 1 (yes)

COMPOUND: N=C(N)NCCC[C@@H]1NC(=O)[C@@H](Cc2ccc(O)cc2)NC(=O)C(CCCCN)SC[C@@H](C(=O)O)NC(=O)[C@H](CC(=O)O)NC(=O)CNC1=O (single isomer, unassigned) [9/11]
SUBJECT OF TEST: Vitronectin Receptor (αvβ3) (Homo sapiens, UniProt P05106+P06756)
LABEL CLASS: 1 (yes)

COMPOUND: N=C(N)NCCC[C@@H]1NC(=O)[C@@H](Cc2ccc(O)cc2)NC(=O)C(CCCCN)SC[C@@H](C(=O)O)NC(=O)[C@H](CC(=O)O)NC(=O)CNC1=O (single isomer, unassigned) [9/10]
SUBJECT OF TEST: Vitronectin Receptor (αvβ3) (Homo sapiens, UniProt P05106+P06756)
LABEL CLASS: 1 (yes)

COMPOUND: N=C(N)NCCC[C@@H]1NC(=O)[C@@H](Cc2ccc(O)cc2)NC(=O)CSC[C@@H](C(=O)NCCCCC(=O)O)NC(=O)[C@H](CC(=O)O)NC(=O)CNC1=O [7/28] ({CH2CO}-[dY]RGDC[Ava]-OH; thioether N-5)
SUBJECT OF TEST: Vitronectin Receptor (αvβ3) (Homo sapiens, UniProt P05106+P06756)
LABEL CLASS: 0 (no)

COMPOUND: N=C(N)NCCC[C@@H]1NC(=O)[C@@H](Cc2ccc(O)cc2)NC(=O)CSC[C@@H](C(=O)N[C@H](CCCCN)C(N)=O)NC(=O)[C@H](CC(=O)O)NC(=O)CNC1=O [7/4] ({CH2CO}-[dY]RGDC[dK]-NH2; thioether N-5)
SUBJECT OF TEST: Vitronectin Receptor (αvβ3) (Homo sapiens, UniProt P05106+P06756)
LABEL CLASS: 1 (yes)

COMPOUND: N=C(N)NCCC[C@@H]1NC(=O)[C@@H](Cc2ccc(O)cc2)NC(=O)CCC[C@@H](C(=O)N[C@@H](CCCCN)C(N)=O)NC(=O)[C@H](CC(=O)O)NC(=O)CNC1=O [10/20] ([dY]RGD[Aad]K-NH2; lactam N-5)
SUBJECT OF TEST: Vitronectin Receptor (αvβ3) (Homo sapiens, UniProt P05106+P06756)
LABEL CLASS: 1 (yes)

Values from patent US5493007A
